Target: LRRK2 wild type (recombinant human, catalytic domain amino acids 970-2527, GST-tagged) (Homo sapiens, UniProt Q5S007)
Construct: The wild type used was recombinant human, catalytic domain (amino acids 970-2527) GST-tagged, expressed in insect cells; GST; purchased Invitrogen Corporation PV4873; host or cells: insect cells
Sequence (Q5S007 970-2527): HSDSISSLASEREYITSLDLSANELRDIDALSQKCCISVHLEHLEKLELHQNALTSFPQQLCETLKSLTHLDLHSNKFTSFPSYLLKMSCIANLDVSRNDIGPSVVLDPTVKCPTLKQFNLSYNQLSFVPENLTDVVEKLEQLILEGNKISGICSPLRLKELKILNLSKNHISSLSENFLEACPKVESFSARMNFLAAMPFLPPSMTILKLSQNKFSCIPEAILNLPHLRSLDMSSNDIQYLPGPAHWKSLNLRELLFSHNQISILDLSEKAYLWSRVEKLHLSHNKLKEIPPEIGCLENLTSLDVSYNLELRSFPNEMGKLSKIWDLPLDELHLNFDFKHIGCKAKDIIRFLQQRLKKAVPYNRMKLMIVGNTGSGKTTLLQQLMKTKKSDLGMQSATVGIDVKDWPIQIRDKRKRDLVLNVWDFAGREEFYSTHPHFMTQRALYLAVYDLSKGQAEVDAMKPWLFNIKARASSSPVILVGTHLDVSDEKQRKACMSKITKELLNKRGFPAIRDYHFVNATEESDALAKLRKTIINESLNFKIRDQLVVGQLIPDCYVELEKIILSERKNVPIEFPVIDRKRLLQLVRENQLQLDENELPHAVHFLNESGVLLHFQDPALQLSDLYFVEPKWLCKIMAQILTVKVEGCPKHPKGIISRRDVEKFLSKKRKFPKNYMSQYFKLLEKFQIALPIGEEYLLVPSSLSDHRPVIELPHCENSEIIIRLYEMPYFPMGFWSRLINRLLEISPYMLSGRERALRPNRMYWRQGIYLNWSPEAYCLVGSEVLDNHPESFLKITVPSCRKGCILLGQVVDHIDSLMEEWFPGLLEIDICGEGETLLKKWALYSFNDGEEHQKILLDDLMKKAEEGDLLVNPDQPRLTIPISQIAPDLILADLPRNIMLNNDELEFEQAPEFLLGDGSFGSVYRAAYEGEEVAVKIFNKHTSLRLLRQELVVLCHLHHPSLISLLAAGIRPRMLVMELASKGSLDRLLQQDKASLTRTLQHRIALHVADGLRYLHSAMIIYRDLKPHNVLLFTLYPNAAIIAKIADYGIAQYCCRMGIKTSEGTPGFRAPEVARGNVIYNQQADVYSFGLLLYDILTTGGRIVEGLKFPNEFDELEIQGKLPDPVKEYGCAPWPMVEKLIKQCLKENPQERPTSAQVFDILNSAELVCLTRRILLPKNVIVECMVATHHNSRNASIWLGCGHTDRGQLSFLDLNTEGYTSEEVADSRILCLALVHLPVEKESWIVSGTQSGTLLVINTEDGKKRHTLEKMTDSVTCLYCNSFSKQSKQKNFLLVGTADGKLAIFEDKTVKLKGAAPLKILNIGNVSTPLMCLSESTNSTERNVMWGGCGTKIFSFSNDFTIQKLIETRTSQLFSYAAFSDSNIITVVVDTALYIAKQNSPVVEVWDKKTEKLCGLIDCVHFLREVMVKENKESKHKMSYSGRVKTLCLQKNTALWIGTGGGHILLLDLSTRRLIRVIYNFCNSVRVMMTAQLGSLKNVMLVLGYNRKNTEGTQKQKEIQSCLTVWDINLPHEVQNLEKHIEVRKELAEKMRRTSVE
Assay: LRRK2 wild type protein kinase assay ([γ-33P] ATP, peptide substrate […]), IC50
Format: biochemical
Conditions: LRRK2 (variant not given); read-out: Potency score, LRRK2 IC50
pIC50: −log10 of the molar value.
Property label: pIC50

{"columns": ["Compound", "pIC50"],
 "data": [
  ["Cc1n[nH]c2ccnc(NCCc3cccc(F)c3)c12 [Example 333]", "6.00 to 7.00"],
  ["CC(=O)Nc1ccc(Nc2nccc3[nH]nc(C)c23)cc1 [Example 79]", "6.00 to 7.00"],
  ["Cc1n[nH]c2ccnc(O[C@H](C)Cc3ccccc3)c12 [Example 299]", "> 7.00"],
  ["CCC[C@H](C)Oc1nccc2[nH]nc(C)c12 [Example 285]", "6.00 to 7.00"]
]}

Look up pIC50 for this compound: COCCC(=O)N1CCC(Nc2nccc3[nH]nc(C)c23)CC1 [Example 102]
5.00 to 6.00

----------
Biological target: LRRK2 wild type (recombinant human, catalytic domain amino acids 970-2527, GST-tagged) (Homo sapiens)
Construct: The wild type used was recombinant human, catalytic domain (amino acids 970-2527) GST-tagged, expressed in insect cells; GST
Assay: LRRK2 wild type protein kinase assay ([γ-33P] ATP, peptide substrate […]), IC50
Settings: LRRK2 (variant not given); read-out: Potency score, LRRK2 IC50
Property label: IC50

Example entries begin here.
{"columns": ["Compound", "IC50"],
 "data": [
  ["CC(C)C(=O)Nc1ccc(CCc2n[nH]c3ccnc(NC4CCCCC4)c23)cc1", "100 to 1000 nM"],
  ["O=C(CCc1n[nH]c2ccnc(NC3CCCCC3)c12)N1CCC(c2ccccc2)CC1", "< 100 nM"],
  ["Cc1n[nH]c2ccnc(-c3cccc(NS(C)(=O)=O)c3)c12", "1000 to 10000 nM"],
  ["COc1ccccc1Nc1nccc2[nH]nc(C)c12", "100 to 1000 nM"],
  ["O=C(CCc1n[nH]c2ccnc(NC3CCCCC3)c12)N1CCCC(F)(F)C1", "< 100 nM"],
  ["c1cc2[nH]ncc2c(NC2CCCCC2)n1", "1000 to 10000 nM"],
  ["Cc1n[nH]c2ccnc(NCc3ccc(Cl)cc3)c12", "1000 to 10000 nM"],
  ["Cc1n[nH]c2ccnc(Nc3ccc(C(=O)N(C)c4ccccc4)cc3)c12", "1000 to 10000 nM"],
  ["Cc1n[nH]c2ccnc(O[C@@H](C)C(C)C)c12", "100 to 1000 nM"],
  ["Cc1cc(C)c(Nc2nccc3[nH]nc(C)c23)cn1", "1000 to 10000 nM"]
]}

Look up IC50 for this compound: CCN(CC)CC1CCCN(C(=O)CCc2n[nH]c3ccnc(NC4CCCCC4)c23)C1 (centres unmarked)
100 to 1000 nM

Cool, now `Cc1n[nH]c2ccnc(Nc3ccc(F)c(Cl)c3)c12`
100 to 1000 nM

Cool, now `Cc1n[nH]c2ccnc(Oc3ccc(-n4ccnc4)cc3)c12`
100 to 1000 nM

Cool, now `CCN(CC)CCNc1nccc2[nH]nc(C)c12`
1000 to 10000 nM

Cool, now `Cc1n[nH]c2ccnc(NC3CCC(F)(F)CC3)c12`
100 to 1000 nM

Cool, now `CC(C)CN(C)C(=O)c1ccc(CCc2n[nH]c3ccnc(NC4CCCCC4)c23)cc1`
< 100 nM

Cool, now `Cc1n[nH]c2ccnc(Nc3ccc(C#N)cc3)c12`
1000 to 10000 nM

Cool, now `CN(CCc1ccccc1)C(=O)CCc1n[nH]c2ccnc(NC3CCCCC3)c12`
1000 to 10000 nM

Cool, now `Cc1n[nH]c2ccnc(Nc3ccc4cnn(C)c4c3)c12`
100 to 1000 nM

Cool, now `Cc1n[nH]c2ccnc(OCc3ccccc3)c12`
100 to 1000 nM
